system: L1210; experiment: Compound was evaluated for cytotoxic activity on L1210 murine leukemia cells; format: functional, cell-based; settings: Mus musculus
measurementKind: pIC50
Interpret pIC50 as the negative base-10 log of the concentration measured in mol/L.

Consider the worked cases shown below.
molecule="CCC1(O)CC(=O)OCc2c1cc1n(c2=O)Cc2cc3ccccc3nc2-1 (stereo not drawn)" target=L1210 readoutnumber=7.79
molecule="CC[C@@]1(O)C(=O)OCc2c1cc1n(c2=O)Cc2cc3c(CN(C)C)c(O)ccc3nc2-1 [TOPOTECAN]" target=L1210 readoutnumber=6.22

Exam item: Bench note: what pIC50 did CC[C@@]1(O)C(=O)OCc2c1cc1n(c2=O)Cc2cc3ccccc3nc2-1 [CAMPTOTHECIN] show?
Marked response: 6.90
